Experiment: Identification of proteins required for the processing of the EWS-FLI1 nascent transcript;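 further: robust z of luciferase light less the median z of siRNAs with the same seed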
Details: TC32 Ewing sarcoma NR0B1-luc vs CMV-luc, 48 h; screened at 20 nM (by protocol)
Over roughly 59,000 sequences, the read-out has its median near -0.00055; the lowest 2% begin near -2. The sample as a whole holds a higher share of the lowest values than the screen did.
Recorded endpoint: seed-corrected z-score
Answer with a number only.

Use these answered entries as a reference point.
[
  {
    "Chain": "AUAUCAAUUGUUAUCUUGC against ANKRD30A",
    "Numeric result": 0.895
  },
  {
    "Chain": "UCGUCUAAAACCAGGAUGC against ABCC3",
    "Numeric result": -0.496
  },
  {
    "Chain": "AAACCUAAAAAUGCACUCC against MAGEE1",
    "Numeric result": 0.116
  },
  {
    "Chain": "UUCAAUACCAAAGAUAUUG against BTF3P16",
    "Numeric result": -2.14
  },
  {
    "Chain": "UUGUAUUCCCUUGUGGUCC against KHDRBS1",
    "Numeric result": -2.93
  },
  {
    "Chain": "AGUGAAUCGAGAGCAAUGG against ELP5",
    "Numeric result": 0.672
  }
]

## Task Give the reported value of seed-corrected z-score for this record: UCUGUCAUCUUUUUGGGUG against PSMD8
## Result -4.18

## Task Give the reported value of seed-corrected z-score for this record: AGUACUACCAAAGAGAUGG against TBC1D23
## Result 0.0728

## Task Give the reported value of seed-corrected z-score for this record: UUUCUUUUCGGCUCUAGGG against NKX2-5
## Result -1.12

====

Assay: Identification of proteins required for the processing of the EWS-FLI1 nascent transcript;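 further: robust z of luciferase light less the median z of siRNAs with the same seed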
Conditions: TC32 Ewing sarcoma NR0B1-luc vs CMV-luc, 48 h; screened at 20 nM (by protocol)
Over roughly 59,000 sequences, the read-out has its median near -0.00055; the lowest 2% begin near -2. Only a selection was taken, and the lowest values are over-represented in it overall.
Recorded endpoint: seed-corrected z-score
Answer with a number only.

Use these answered entries as a reference point.
[
  {
    "Chain": "AAUGUUUCCCACAUGGAUG against SMARCB1",
    "Numeric result": -1.85
  },
  {
    "Chain": "UAAGCGGUUCAUGCUGUGG against CPA5",
    "Numeric result": -0.872
  },
  {
    "Chain": "AAAGUCACGUUUUCCGCGC against RGS14",
    "Numeric result": 0.981
  },
  {
    "Chain": "UGUAGUAAUGUGAUUUUCC against CTBP2",
    "Numeric result": 1.22
  },
  {
    "Chain": "ACUGCUUUGACAUCUGGGC against SNF8",
    "Numeric result": -0.699
  },
  {
    "Chain": "AUCGUCUUGACUGUGGUCC against CEACAM1",
    "Numeric result": -0.766
  }
]

## Task Give the reported value of seed-corrected z-score for this record: UUCAUUAUUAUCUCAGGAG against RFC3
## Result -1.02

## Task Give the reported value of seed-corrected z-score for this record: UUUCGGUUUCCACUUUUCC against NIPAL3
## Result 0.547

## Task Give the reported value of seed-corrected z-score for this record: UCCUUUUCCACGACCAUCG against CCR2
## Result -1.29

## Task Give the reported value of seed-corrected z-score for this record: UGGUGGUCCACCUUGUUAG against F13A1
## Result -1.25

====

Assay: Identification of proteins required for the processing of the EWS-FLI1 nascent transcript;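 further: robust z of luciferase light less the median z of siRNAs with the same seed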
Conditions: TC32 Ewing sarcoma NR0B1-luc vs CMV-luc, 48 h; screened at 20 nM (by protocol)
Over roughly 59,000 sequences, the read-out has its median near -0.00055; the lowest 2% begin near -2. Shown is part of a subset that was picked to be rich in the lowest values.
Recorded endpoint: seed-corrected z-score
Answer with a number only.

Use these answered entries as a reference point.
[
  {
    "Chain": "UUGGUAGGCAUCGUAGUAG against CLDN2",
    "Numeric result": 0.894
  },
  {
    "Chain": "UGUCGAAACAGGAGGCGCU against ZNF579",
    "Numeric result": -1.11
  },
  {
    "Chain": "AAGAGAAUCAAAAUAGUGG against GPR63",
    "Numeric result": -0.548
  },
  {
    "Chain": "UCUGAUGACUGUUUACAGC against ZNF180",
    "Numeric result": 0.161
  }
]

## Task Give the reported value of seed-corrected z-score for this record: UCUUGUCCAAGACUCCUUC against SMTN
## Result -0.516

## Task Give the reported value of seed-corrected z-score for this record: UCUCGUUCGGUAAUCUUCC against PPP2R2C
## Result -0.613

## Task Give the reported value of seed-corrected z-score for this record: AAACUGGUUGGAGUUGUUG against ITGB2
## Result 0.512

## Task Give the reported value of seed-corrected z-score for this record: UUUCCUUCCAACUCUGCGC against ZNF835
## Result -1.63

====

Assay: Identification of proteins required for the processing of the EWS-FLI1 nascent transcript;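 further: robust z of luciferase light less the median z of siRNAs with the same seed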
Details: TC32 Ewing sarcoma NR0B1-luc vs CMV-luc, 48 h; screened at 20 nM (by protocol)
Over roughly 59,000 sequences, the read-out has its median near -0.00055; the lowest 2% begin near -2. Shown is part of a subset that was picked to be rich in the lowest values.
# seed-corrected z-score binned as lo: < -0.7; mid: ≥ -0.7 and < 0.09; hi: ≥ 0.09

Completed entries (count: 10):
[
  {
    "Chain": "UAGUGUAAACAAGAAGUUG against ABHD10",
    "Qualitative label": "hi"
  },
  {
    "Chain": "UGAGUUUCGAGAGCACAGU against MID1IP1",
    "Qualitative label": "lo"
  },
  {
    "Chain": "UUCUUGUUGGAUAAUGCUG against RFX8",
    "Qualitative label": "hi"
  },
  {
    "Chain": "AAAUAGACAAAUAGGAUCC against PSMD12",
    "Qualitative label": "lo"
  },
  {
    "Chain": "UCAUGAACCCGAGCUCGAG against CD37",
    "Qualitative label": "mid"
  },
  {
    "Chain": "UUUACCACAGGUUUCUUCC against HIRIP3",
    "Qualitative label": "mid"
  },
  {
    "Chain": "UUUGCGAUCUUCGAAGCCC against REEP3",
    "Qualitative label": "mid"
  },
  {
    "Chain": "UAGCGAAUCUGUAAGCUGC against MLLT10",
    "Qualitative label": "mid"
  },
  {
    "Chain": "UCUGCUCCCACAAUGAAAC against RPLP0",
    "Qualitative label": "lo"
  },
  {
    "Chain": "GUUGUAUUCGUCGUCGUCC against NKX6-2",
    "Qualitative label": "hi"
  }
]

## Task Band assignment needed for UAGGAACCAGAAAUAAUCC against ATP8A2 please.
## Result mid

## Task Band assignment needed for UCUCUAAACAGGUCCCAAG against PDX1 please.
## Result mid

====

Assay: Identification of proteins required for the processing of the EWS-FLI1 nascent transcript;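 further: robust z of luciferase light less the median z of siRNAs with the same seed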
Settings: TC32 Ewing sarcoma NR0B1-luc vs CMV-luc (EWS-FLI1 target promoter against control promoter), 48 h; screened at 20 nM (by protocol)
Over roughly 59,000 sequences, the read-out has its median near -0.00055; the lowest 2% begin near -2. The full list was thinned out, with the lowest values kept by preference.
Response field label takes T when seed-corrected z-score is strictly below -0.5 and F in all other cases.

Completed entries (count: 3):
[
  {
    "Chain": "ACUCUUAUCAGGCACAUCC against IMPAD1",
    "Qualitative label": "T"
  },
  {
    "Chain": "UUGGGUUCUACAAGCUUCC against SDE2",
    "Qualitative label": "F"
  },
  {
    "Chain": "AGACUGAGCAGUAGGACUC against SLC35E4",
    "Qualitative label": "T"
  }
]

## Task Take the sequence UUUAGUUCCUGAUCGAAAG against ZNF800 and say whether its seed-corrected z-score is less than -0.5.
## Result F

## Task Take the sequence AACAGUUUCUGCAUUCUUC against PARG and say whether its seed-corrected z-score is less than -0.5.
## Result F

## Task Take the sequence AGAUUUAUAAUAAUCCCAC against C11orf72 and say whether its seed-corrected z-score is less than -0.5.
## Result F

## Task Take the sequence UCCUGGUUAAAUAGGAAGG against BLID and say whether its seed-corrected z-score is less than -0.5.
## Result T

## Task Take the sequence UAAGUUCUUAGAGUUUUGG against TP53TG3 and say whether its seed-corrected z-score is less than -0.5.
## Result F

## Task Take the sequence AUGUGGACAACCUUCUUUG against RPS10P9 and say whether its seed-corrected z-score is less than -0.5.
## Result T

## Task Take the sequence UGCCCAUCCACAUUGUCCU against REXO1 and say whether its seed-corrected z-score is less than -0.5.
## Result F

## Task Take the sequence AAUAUCCCAAUGUUCAUGC against FHDC1 and say whether its seed-corrected z-score is less than -0.5.
## Result T

## Task Take the sequence AUACUUGCAGGUGUCAUUG against CD300A and say whether its seed-corrected z-score is less than -0.5.
## Result F
